Where do the numbers come from? From ChEMBL document CHEMBL4138122.

# MEASUREMENT_TARGET: Cholinesterase (Equus caballus) (UniProt P81908)
# Sequence (P81908 whole entry): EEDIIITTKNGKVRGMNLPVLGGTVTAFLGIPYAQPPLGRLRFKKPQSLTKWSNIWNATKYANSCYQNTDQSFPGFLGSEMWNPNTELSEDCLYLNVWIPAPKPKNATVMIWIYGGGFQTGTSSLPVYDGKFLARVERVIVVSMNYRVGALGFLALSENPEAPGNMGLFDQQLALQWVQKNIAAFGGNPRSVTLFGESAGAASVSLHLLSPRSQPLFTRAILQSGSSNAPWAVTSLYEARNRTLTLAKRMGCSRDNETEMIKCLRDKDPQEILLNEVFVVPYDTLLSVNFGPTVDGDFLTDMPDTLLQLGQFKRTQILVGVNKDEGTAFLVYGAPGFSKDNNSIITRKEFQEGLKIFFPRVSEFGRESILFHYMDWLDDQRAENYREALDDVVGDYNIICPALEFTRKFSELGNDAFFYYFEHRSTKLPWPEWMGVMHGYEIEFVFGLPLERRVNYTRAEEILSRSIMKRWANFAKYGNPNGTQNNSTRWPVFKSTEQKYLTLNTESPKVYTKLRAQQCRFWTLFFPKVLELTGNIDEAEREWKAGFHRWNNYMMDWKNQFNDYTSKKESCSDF
# EXPERIMENT_SUMMARY: Inhibition of horse serum BChE at 10 uM
OBSERVED_PROPERTY: inhibition (%)
Express your answer in %, writing the number without its unit.

Entry CN1CCCCC1CCN1c2nc3ccccc3cc2Sc2cc3ccccc3nc21 (stereo not given) — recorded inhibition = 99.8

Entry CSc1ccc2c(c1)Sc1cc3ccccc3nc1N2CCC1CCCCN1C (stereo not given) — recorded inhibition = 99.9

Entry O=C(NCCCl)NCCCN1c2ccc(Cl)cc2Sc2cc3ccccc3nc21 — recorded inhibition = 80

Entry CN1CCCCC1CCN1c2ccc(Cl)cc2Sc2cc3ccccc3nc21 (stereo not given) — recorded inhibition = 99.9

Entry O=C(NCCCl)NCCCN1c2nc3ccccc3cc2Sc2cc3ccccc3nc21 — recorded inhibition = 83.2
